target: Jak3 (Homo sapiens, UniProt P52333); construct: Jak3 enzyme (aa 811-1103); GST; test: Jak3 enzyme data for selected compounds
Sequence (P52333 811-1103): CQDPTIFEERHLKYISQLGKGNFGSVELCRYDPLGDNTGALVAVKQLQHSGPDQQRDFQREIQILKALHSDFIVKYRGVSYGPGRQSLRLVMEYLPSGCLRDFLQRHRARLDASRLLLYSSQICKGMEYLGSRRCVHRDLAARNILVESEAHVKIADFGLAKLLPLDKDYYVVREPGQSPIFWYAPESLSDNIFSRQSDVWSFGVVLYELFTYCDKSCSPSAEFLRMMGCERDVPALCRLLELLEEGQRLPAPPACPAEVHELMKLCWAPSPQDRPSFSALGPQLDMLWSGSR
Measured IC50 by item

Worked examples, 3 compounds total:
{"columns": ["compound", "IC50"],
 "data": [
  ["O=C(N1CCC(F)(F)CC1)N1CCC[C@@H](c2ncc3cnc4[nH]ccc4n23)C1", "0.1 to 1 µM"],
  ["C[C@H]1CCN(C(=O)N(C)C)C[C@H]1c1ncc2cnc3[nH]ccc3n12 (racemic)", "< 0.1 µM"],
  ["CC[C@@H]1C[C@H](NS(=O)(=O)C2CC2)C[C@@H]1c1nnc2cnc3[nH]cc(C#N)c3n12", "> 1 µM"]
]}

QUERY: IC50 for C[C@@H]1CCN(C(=O)Nc2ccc(C#N)cc2)C[C@@H]1c1ncc2cnc3[nH]ccc3n12 ?
RESULT: < 0.1 µM

QUERY: Name the recorded IC50 for CC[C@@H]1C[C@H](NS(=O)(=O)N2CCC(F)(F)C2)C[C@@H]1c1nnc2cnc3[nH]ccc3n12 .
RESULT: 0.1 to 1 µM

QUERY: Item CCCCC1(S(=O)(=O)N[C@H]2C[C@@H](CC)[C@@H](c3nnc4cnc5[nH]ccc5n34)C2)CC1 has what recorded IC50?
RESULT: 0.1 to 1 µM

QUERY: What value of IC50 has been recorded for this entry: C[C@@H]1CCN(C(=O)N2CCC2)C[C@@H]1c1ncc2cnc3[nH]ccc3n12
RESULT: < 0.1 µM

QUERY: Look up IC50 for this compound: C[C@@H]1CCN(C(=O)C2CC(F)(F)C2)C[C@@H]1c1ncc2cnc3[nH]ccc3n12
RESULT: < 0.1 µM

----------
target: Jak3 (Homo sapiens); construct: Jak3 enzyme (aa 811-1103); GST; assay: Jak3 enzyme data for selected compounds
Below, each of the molecules is paired with its reported IC50 value.

Some solved cases for reference:
{"columns": ["molecule", "assayedTarget", "obsValue"],
 "data": [
  ["CC[C@@H]1C[C@H](NS(=O)(=O)CCn2cc(C#N)cn2)C[C@@H]1c1nnc2cnc3[nH]ccc3n12", "Jak3 (Homo sapiens)", "> 1000 nM"],
  ["O=C(N1CCC[C@@H](c2ncc3cnc4[nH]ccc4n23)C1)N1CCC(F)(F)C1", "Jak3 (Homo sapiens)", "< 100 nM"],
  ["O=S(=O)(CCC(F)(F)F)N1CC2CC1CN2c1ncc2cnc3[nH]ccc3n12 (centres unmarked)", "Jak3 (Homo sapiens)", "> 1000 nM"],
  ["CC[C@H]1C[C@H](NS(=O)(=O)C2CC2)C[C@@H]1c1nnc2cnc3[nH]ccc3n12 (single isomer, unassigned)", "Jak3 (Homo sapiens)", "100 to 1000 nM"],
  ["O=S(=O)(NC12CCC(c3nnc4cnc5[nH]ccc5n34)(CC1)CC2)N1CCCC1", "Jak3 (Homo sapiens)", "100 to 1000 nM"],
  ["CC[C@@H]1C[C@H](OCc2ccc(OC)cc2)C[C@H]1c1nnc2cnc3[nH]ccc3n12 (racemic) [D.1.38]", "Jak3 (Homo sapiens)", "100 to 1000 nM"],
  ["O=C(N1CCC[C@@H](c2cnc3cnc4[nH]ccc4n23)C1)N1CCC(F)(F)C1 (single isomer, unassigned)", "Jak3 (Homo sapiens)", "< 100 nM"]
]}

Next up:
QUERY: What IC50 value was documented for this molecule, CC[C@@H]1C[C@H](NS(=O)(=O)C2CC2)CN1c1cnc2cnc3[nH]ccc3n12 ?
RESULT: < 100 nM

Origin of measurements: patent USRE47221E1
